This collection of values is drawn from patent US9409914B2.

target: GCN2 (Homo sapiens, UniProt Q9P2K8); assay: GCN2 enzyme assay (TR-FRET Lanthascreen, phosphorylation of GFP-eIF2alpha); assay type: biochemical; conditions: 10 μM ATP, 80 nM GFP-eIF2alpha, 30 nM GCN2, room temperature
Sequence (Q9P2K8 whole entry, species assumed): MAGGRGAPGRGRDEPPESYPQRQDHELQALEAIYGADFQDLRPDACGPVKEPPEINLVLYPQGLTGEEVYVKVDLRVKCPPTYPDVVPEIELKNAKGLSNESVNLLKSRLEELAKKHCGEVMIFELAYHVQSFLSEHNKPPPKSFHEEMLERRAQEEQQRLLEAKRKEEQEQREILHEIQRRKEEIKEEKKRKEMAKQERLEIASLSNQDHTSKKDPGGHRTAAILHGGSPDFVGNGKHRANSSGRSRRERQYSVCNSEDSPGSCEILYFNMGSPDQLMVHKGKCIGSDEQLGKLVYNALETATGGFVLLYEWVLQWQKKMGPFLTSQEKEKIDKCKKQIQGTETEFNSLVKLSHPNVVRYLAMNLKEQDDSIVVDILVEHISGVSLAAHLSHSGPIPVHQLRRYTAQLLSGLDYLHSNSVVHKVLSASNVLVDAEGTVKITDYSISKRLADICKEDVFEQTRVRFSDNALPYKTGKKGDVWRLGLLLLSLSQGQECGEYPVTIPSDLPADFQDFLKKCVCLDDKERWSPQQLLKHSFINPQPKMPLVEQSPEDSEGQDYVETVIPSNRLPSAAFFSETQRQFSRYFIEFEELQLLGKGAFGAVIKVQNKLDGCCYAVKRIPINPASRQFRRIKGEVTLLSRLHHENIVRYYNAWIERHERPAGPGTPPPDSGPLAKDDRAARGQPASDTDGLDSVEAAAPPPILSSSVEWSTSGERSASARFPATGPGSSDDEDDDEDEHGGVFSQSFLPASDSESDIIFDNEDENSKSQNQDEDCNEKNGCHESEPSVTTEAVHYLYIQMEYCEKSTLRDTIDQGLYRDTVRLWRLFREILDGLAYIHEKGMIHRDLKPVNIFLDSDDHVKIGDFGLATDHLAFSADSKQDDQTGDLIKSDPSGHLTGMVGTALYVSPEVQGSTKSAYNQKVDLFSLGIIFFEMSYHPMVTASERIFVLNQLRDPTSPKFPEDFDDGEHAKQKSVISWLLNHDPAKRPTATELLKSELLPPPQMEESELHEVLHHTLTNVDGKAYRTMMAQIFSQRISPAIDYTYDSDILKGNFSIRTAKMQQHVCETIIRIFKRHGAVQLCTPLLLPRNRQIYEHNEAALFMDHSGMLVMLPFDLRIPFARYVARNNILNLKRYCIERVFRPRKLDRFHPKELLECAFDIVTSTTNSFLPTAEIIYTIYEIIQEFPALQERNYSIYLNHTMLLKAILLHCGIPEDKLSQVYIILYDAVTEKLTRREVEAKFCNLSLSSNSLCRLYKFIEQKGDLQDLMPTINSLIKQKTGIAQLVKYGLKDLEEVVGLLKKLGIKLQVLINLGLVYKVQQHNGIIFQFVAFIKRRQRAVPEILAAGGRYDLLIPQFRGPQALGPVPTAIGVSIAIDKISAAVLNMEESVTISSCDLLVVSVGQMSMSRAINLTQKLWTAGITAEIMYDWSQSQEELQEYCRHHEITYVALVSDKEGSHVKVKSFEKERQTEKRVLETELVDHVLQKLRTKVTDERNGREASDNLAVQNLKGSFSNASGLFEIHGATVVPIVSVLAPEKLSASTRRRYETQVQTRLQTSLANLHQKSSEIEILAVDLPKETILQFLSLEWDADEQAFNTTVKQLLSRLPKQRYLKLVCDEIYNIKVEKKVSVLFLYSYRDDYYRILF
pIC50: −log10 of the molar value.
assay-metric: pIC50

A selection of reference data follows.
compound: CC(C)(O)c1ccc(-n2nnc3cnc(Nc4cnn(C5CCOCC5)c4)nc32)cc1 [Compound A119]
pIC50: > 6.52
--
compound: CN1CCC(n2cc(Nc3ncc4nnn(-c5ccc(Cl)cc5)c4n3)cn2)CC1 [Compound A153]
pIC50: > 6.52
--
compound: CCOc1ccc(-n2nnc3cnc(Nc4cnn(CCCOC)c4)nc32)cc1 [Compound A49]
pIC50: > 6.52
--
compound: Fc1cc(-n2nnc3cnc(Nc4cnn(C5CCOCC5)c4)nc32)ccc1Cl [Compound A81]
pIC50: > 6.52
--
compound: CCn1cc(Nc2ncc3nnn(-c4ccc(C(C)(C)O)cc4)c3n2)cn1 [Compound A121]
pIC50: > 6.52
--
compound: CCn1cc(-n2nnc3cnc(Nc4cnn(C5CCN(C)CC5)c4)nc32)cn1 [Compound A79]
pIC50: > 6.52
--
compound: CCn1cc(Nc2ncc3nnn(-c4ccc(F)cc4C#N)c3n2)cn1 [Compound A72]
pIC50: 5.52 to 6.52
--
compound: COc1ccc(-n2nnc3cnc(Nc4nc(-c5ccc(NC(C)=O)cc5)cs4)nc32)cc1 [Compound A42]
pIC50: 5.52 to 6.52
--
compound: Fc1cccc(-n2nnc3cnc(Nc4cnn(C5CCOCC5)c4)nc32)c1 [Compound A122]
pIC50: > 6.52
--
compound: COc1ccc(-n2nnc3cnc(/N=C4/N=C(C)CO4)nc32)cc1 [Compound A12]
pIC50: 4.30 to 5.52

Q. Entry CN1CCC(n2cc(Nc3ncc4nnn(-c5ccc6[nH]ncc6c5)c4n3)cn2)CC1 [Compound A93] has what pIC50?
A. > 6.52

Q. Similarly, CCOc1ccc(-n2nnc3cnc(Nc4cnn([C@H]5CC[C@@H](O)CC5)c4)nc32)cc1 [Compound A19] ?
A. > 6.52

---

target: GCN2 (Homo sapiens, UniProt Q9P2K8); assay: GCN2 enzyme assay (TR-FRET Lanthascreen, phosphorylation of GFP-eIF2alpha); format: biochemical; details: 10 μM ATP, 80 nM GFP-eIF2alpha, 30 nM GCN2, room temperature
assay-metric: IC50

A selection of reference data follows.
molecule: COCCCn1cc(Nc2ncc3nnn(-c4ccc(Cl)c(F)c4)c3n2)cn1 [Compound A50]
IC50: < 300 nM
--
molecule: COc1ccc(-n2nnc3cnc(Nc4cnn(C5CCOCC5)c4)nc32)cc1 [Compound A13]
IC50: < 300 nM
--
molecule: CC(C)(N)c1ccc(-n2nnc3cnc(Nc4cnn(C5CCOCC5)c4)nc32)cc1 [Compound A152]
IC50: < 300 nM

Q. Entry COCCOc1ccc(-n2nnc3cnc(Nc4cnn(C)c4)nc32)cc1 [Compound A56] has what IC50?
A. < 300 nM

Q. Similarly, CCOc1ccc(-n2nnc3cnc(Nc4cnn(CCn5cccn5)c4)nc32)cc1 [Compound A54] ?
A. < 300 nM

Q. Similarly, CN1CCC(n2cc(Nc3ncc4nnn(-c5ccc(F)c(F)c5)c4n3)cn2)CC1 [Compound A120] ?
A. 300 to 3000 nM

Q. Similarly, Fc1ccc(-n2nnc3cnc(Nc4cnn(C5CCOCC5)c4)nc32)cc1Cl [Compound A110] ?
A. 300 to 3000 nM

Q. Similarly, COc1ccc(-n2nnc3cnc(Nc4cnn(CCn5cccn5)c4)nc32)nc1 [Compound A124] ?
A. < 300 nM
